src = patent US6914045B2

# Test system: Staphylococcus sp.
# assay method text: in vitro antibacterial evaluation, MIC by broth dilution
# Format: cell-based
# condition notes: strain GC 3053; broth dilution, 18 hours at 35° C.
# Source text: Methods for in vitro Antibacterial Evaluation (Table 1) […]
readout type: MIC Staphylococcus aureus (GC 3053)

{"molecule": "CC(c1ccccc1)C1NC(=O)CNC(=O)C(CO)NC(=O)C(C(O)C2CN(c3nc4ccccc4o3)C(=N)N2C2OC(CO)C(O)C(O)C2O)NC(=O)C(C(O)C2CNC(=Nc3nc4ccccc4o3)N2)NC(=O)C(Cc2ccc(OC3OC(CO)C(OC4OC(CO)C(O)C(O)C4O)C(O)C3O)cc2)NC1=O (stereo not drawn)", "system": "Staphylococcus sp.", "observed measurement": ">128 µg/mL"}
{"molecule": "CC(c1ccccc1)C1NC(=O)CNC(=O)C(CO)NC(=O)C(C(O)C2CN(Cc3ccc4ccccc4c3)C(=N)N2C2OC(CO)C(O)C(O)C2O)NC(=O)C(C(O)C2CNC(=N)N2)NC(=O)C(Cc2ccc(OC3OC(CO)C(OC4OC(CO)C(O)C(O)C4O)C(O)C3O)cc2)NC1=O (stereo not drawn)", "system": "Staphylococcus sp.", "observed measurement": ">128 µg/mL"}
{"molecule": "CC(c1ccccc1)C1NC(=O)CNC(=O)C(CO)NC(=O)C(C(O)C2CN(Cc3ccc(-c4ccccc4)cc3)C(=N)N2C2OC(CO)C(O)C(O)C2O)NC(=O)C(C(O)C2CNC(=N)N2)NC(=O)C(Cc2ccc(OC3OC(CO)C(OC4OC(CO)C(O)C(O)C4O)C(O)C3O)cc2)NC1=O (stereo not drawn) [Example 66a]", "system": "Staphylococcus sp.", "observed measurement": ">128 µg/mL"}

====

# System: Staphylococcus sp.
# assay method text: in vitro antibacterial evaluation, MIC by broth dilution
# Type: cell-based
# condition notes: broth dilution, 18 hours at 35° C.
Numbered stars: 1 amine (or outer) side, 2 acyl side, 3 side chain; on linkers, the order of the positions; unused ones are H or OH. Square brackets hold non-standard residues; d marks the D form. Peptide text beside a SMILES is read from it. * marks the point of attachment. ξ: configuration not given here. X1 = N=C1NCC(C(O)C(N[*:1])C(=O)[*:2])N1C1OC(CO)C(O)C(O)C1O; ξEnduracididine(βξ-OH,4'ξ) = N=C1NCC(C(O)C(N)C(=O)O)N1; X2 = OCC1OC(OC2C(CO)OC(*)C(O)C2O)C(O)C(O)C1O; Cha = N[CH](CC1CCCCC1)C(=O)O
Measured MIC Staphylococcus aureus (GC 4544) by item

{"compound": "CC(c1ccc(F)cc1)C1NC(=O)CNC(=O)C(CO)NC(=O)C(C(O)C2CNC(=N)N2C2OC(CO)C(O)C(O)C2O)NC(=O)C(C(O)C2CNC(=N)N2)NC(=O)C(Cc2ccc(OC3OC(CO)C(OC4OC(CO)C(O)C(O)C4O)C(O)C3O)cc2)NC1=O (stereo not drawn) [Example 261a]", "MIC Staphylococcus aureus (GC 4544)": ">64 µg/mL"}
{"compound": "CC(c1ccccc1)C1NC(=O)CNC(=O)C(CO)NC(=O)C(C(O)C2CNC(=N)N2C2OC(CO)C(O)C(O)C2O)NC(=O)C(C(O)C2CNC(=N)N2)NC(=O)C(Cc2ccc(OC3OC(CO)C(OC4OC5COC(C6CCCCC6)OC5C(O)C4O)C(O)C3O)cc2)NC1=O (stereo not drawn) [Example 112]", "MIC Staphylococcus aureus (GC 4544)": "0.5 to 2 µg/mL"}
{"compound": "N=C1NCC(C(O)C2NC(=O)C(Cc3ccc(OC4OC(CO)C(OC5OC(CO)C(O)C(O)C5O)C(O)C4O)cc3)NC(=O)C(CC3CCCCC3)NC(=O)CNC(=O)C(CO)NC(=O)C(C(O)C3CNC(=N)N3C3OC(CO)C(O)C(O)C3O)NC2=O)N1 (stereo not drawn) [Example 263] (cyclo(G[Cha]Y(X2)[ξEnduracididine(βξ-OH,4'ξ)][X1]S); configuration not given here)", "MIC Staphylococcus aureus (GC 4544)": ">64 µg/mL"}
